# Tested on: SK-OV-3 multi-cell spheroids, viability
# assay-summary: Anticancer human tumor SK-OV-3 cell line growth inhibition [IpAb]
# particulars: curve of first compound; second compound 0.316 µM
# Experimental: Combinatorial screen of targeted agents with ipatasertib and abemaciclib in multi-cell type tumor spheroids […] Compounds. […] If the clinical Cmax for an agent had not been determined, the highest concentration tested was 10 microM. NCI60 Cell Culture. […] The optimal seeding densities for each of the cell lines at each time point assessed were determined prior to performing the concentration response studies. […]
pIC50: −log10 of the molar value.
Please respond with reported pIC50 for every item in the list.

# count of solved cases: 2
| compound | experimental-system | assay-result |
| --- | --- | --- |
| Cn1ncc(Cl)c1-c1cc(C(=O)NC(CN)Cc2cccc(F)c2)sc1Cl (stereo not drawn) + CC(C)NCC(C(=O)N1CCN(c2ncnc3c2C(C)CC3O)CC1)c1ccc(Cl)cc1 | SK-OV-3 multi-cell spheroids, viability | > 7.50 |
| Cc1nc(NC(=O)N2CCCC2C(N)=O)sc1-c1ccnc(C(C)(C)C(F)(F)F)c1 (stereo not drawn) + CCN1CCN(Cc2ccc(Nc3ncc(F)c(-c4cc(F)c5nc(C)n(C(C)C)c5c4)n3)nc2)CC1 | SK-OV-3 multi-cell spheroids, viability | > 7.50 |

Using the record for C=CCn1c(=O)c2cnc(Nc3ccc(N4CCN(C)CC4)cc3)nc2n1-c1cccc(C(C)(C)O)n1 + CC(C)NCC(C(=O)N1CCN(c2ncnc3c2C(C)CC3O)CC1)c1ccc(Cl)cc1 , report its pIC50. > 7.50

Origin of measurements: PubChem BioAssay AID2060325
